Test system: KB
Assay explanation: Cytotoxicity against human KB cells by colorimetric method
Type: functional, cell-based
pIC50 listing for selected compounds.
FYI, pIC50 means -log10 of a concentration in mol per litre.

Reference set, count: 4
Compound: COc1cc(CCCc2cc(OC)c(O)c(OC)c2)ccc1O
Measured result: 4.34
--
Compound: COc1cc2c(cc1OC)O[C@H](c1ccc(O)c(O)c1)CC2 [(2S)-3',4'-DIHYDROXY-6,7-DIMETHOXYFLAVAN]
Measured result: 4.37
--
Compound: COc1cccc2c1C(=O)c1c(O)c3c(c(O)c1C2=O)C[C@@](O)(C(=O)CO)C[C@@H]3O[C@H]1C[C@H](N)[C@H](O)[C@H](C)O1
Measured result: 6.42
--
Compound: COc1cc(OC)c2c(c1)O[C@H](c1ccc(O)c(O)c1)CC2 [(2S)-3',4'-DIHYDROXY-5,7-DIMETHOXYFLAVAN]
Measured result: 4.50

Please examine the following record next.
Ask: Consider the compound shown here: COc1cc([C@@H]2CCc3cc(O)c(OC)cc3O2)ccc1O What is its recorded pIC50?
Result: 4.16

---

Tested on: Plasmodium falciparum
Assay explanation: Antimalarial activity against Plasmodium falciparum K1 assessed as reduction in parasite growth measuring [3H]-hypoxanthine uptake by microculture radioisotope technique
Assay type: functional, organism-based
Assay endpoint: pIC50
When answering, recall that pIC50 equals minus log10 of the concentration in mol/L, and write that number alone.

Compound: COc1cc2c(cc1OC)O[C@H](c1ccc(O)c(O)c1)CC2 [(2S)-3',4'-DIHYDROXY-6,7-DIMETHOXYFLAVAN]
System under test: Plasmodium falciparum
Measured result: 4.80

Ask: Would you kindly share the measured pIC50 for COc1cc(CCCc2cc(OC)c(O)c(OC)c2)ccc1O ?
Result: 4.84

Ask: GET /values?readout=pIC50&item= COc1cc2c(cc1O)CC[C@@H](c1ccc(O)c(O)c1)O2
Result: 4.88

Ask: Record request: pIC50 value, item COc1cc(OC)c2c(c1)O[C@H](c1ccc(O)c(O)c1)CC2 [(2S)-3',4'-DIHYDROXY-5,7-DIMETHOXYFLAVAN]
Result: 5.02

Ask: Look up pIC50 for this compound: C[C@H]1[C@@H](O)O[C@@H]2O[C@@]3(C)CC[C@H]4[C@H](C)CC[C@@H]1[C@@]24OO3
Result: 8.85

---

Tested on: MCF7
Assay explanation: Cytotoxicity against human MCF7 cells by colorimetric method
Format: functional, cell-based
Applied conditions: Homo sapiens, MCF7; read-out: IC50
IC50 strictly less than 90 µM = T. Otherwise F.

Compound: COc1cc(CCCc2c(OC)cc(O)cc2OC)ccc1O
Assigned category: T
//
Compound: COc1cc(CCCc2cc(O)c(OC)cc2OC)ccc1O
Assigned category: T

Moving on to another compound below.
Ask: Below 90 µM on IC50? Entry COc1cc2c(cc1OC)O[C@H](c1ccc(O)c(O)c1)CC2 [(2S)-3',4'-DIHYDROXY-6,7-DIMETHOXYFLAVAN]
Result: T

---

Tested on: KB
Assay explanation: Cytotoxicity against human KB cells by colorimetric method
Type: functional, cell-based
Form field: IC50 (one value per entry).
Give just the number in µM; leave the unit off.

Record excerpt, results attached:
Compound: COc1ccc2c(c1)O[C@H](c1ccc(O)c(OC)c1)CC2 [(2S)-4'-HYDROXY-7,3'-DIMETHOXYFLAVAN]
IC50 [µM]: 97.9
//
Compound: COc1cc2c(cc1O)CC[C@@H](c1ccc(O)c(O)c1)O2
IC50 [µM]: 24.6
//
Compound: COc1cc([C@@H]2CCc3cc(OC)c(OC)cc3O2)ccc1O [(2S)-4'-HYDROXY-6,7,3'-TRIMETHOXYFLAVAN]
IC50 [µM]: 106
//
Compound: COc1cc(CCCc2c(OC)cc(O)cc2OC)ccc1O
IC50 [µM]: 49.3

Ask: Please look up its IC50: COc1cc(CCCc2cc(O)c(OC)cc2OC)ccc1O
Result: 24.6

---

Test system: Mycobacterium tuberculosis
Assay explanation: Antimycobacterial activity against Mycobacterium tuberculosis H37Ra at 50 ug/ml by MABA
Type: functional, organism-based
Active and inactive are the calls of the source. The rule behind the calls is not given here.
Assay endpoint: Activity

Examples with answers:
Compound: COc1cc([C@@H]2CCc3cc(O)c(OC)cc3O2)ccc1O
System under test: Mycobacterium tuberculosis
Activity: inactive
//
Compound: COc1cc(CCCc2cc(OC)c(O)c(OC)c2)ccc1O
System under test: Mycobacterium tuberculosis
Activity: inactive
//
Compound: COc1ccc2c(c1)O[C@H](c1ccc(O)c(OC)c1)CC2 [(2S)-4'-HYDROXY-7,3'-DIMETHOXYFLAVAN]
System under test: Mycobacterium tuberculosis
Activity: inactive
//
Compound: COc1cc(CCCc2c(OC)cc(O)cc2OC)ccc1O
System under test: Mycobacterium tuberculosis
Activity: inactive

Ask: Param item = COc1cc2c(cc1OC)O[C@H](c1ccc(O)c(O)c1)CC2 [(2S)-3',4'-DIHYDROXY-6,7-DIMETHOXYFLAVAN] ; retrieve measured Activity.
Result: inactive

Ask: Fill in the blank: the reported Activity of COc1cc2c(cc1O)CC[C@@H](c1ccc(O)c(O)c1)O2 is ____.
Result: inactive

Ask: Could you share which Activity value was measured for COc1cc([C@@H]2CCc3cc(OC)c(OC)cc3O2)ccc1O [(2S)-4'-HYDROXY-6,7,3'-TRIMETHOXYFLAVAN] ?
Result: inactive

Ask: // query Activity value for entry COc1cc(CCCc2cc(O)c(OC)cc2OC)ccc1O
Result: inactive

Ask: Query: Activity; subject: COc1cc(OC)c2c(c1)O[C@H](c1ccc(O)c(O)c1)CC2 [(2S)-3',4'-DIHYDROXY-5,7-DIMETHOXYFLAVAN]
Result: inactive

---

Test system: MCF7
Assay explanation: Cytotoxicity against human MCF7 cells by colorimetric method
Assay type: functional, cell-based
Applied conditions: Homo sapiens, MCF7; read-out: IC50
Quick reference for IC50 among some compounds
Kindly provide the numeric value in µM only, without the unit symbol.

Solved entries (count: 4):
Compound: COc1cc(CCCc2cc(OC)c(O)c(OC)c2)ccc1O
IC50 (µM): 72

Compound: COc1ccc2c(c1)O[C@H](c1ccc(O)c(OC)c1)CC2 [(2S)-4'-HYDROXY-7,3'-DIMETHOXYFLAVAN]
IC50 (µM): 88.4

Compound: COc1cc([C@@H]2CCc3cc(O)c(OC)cc3O2)ccc1O
IC50 (µM): 90.1

Compound: COc1cc(OC)c2c(c1)O[C@H](c1ccc(O)c(O)c1)CC2 [(2S)-3',4'-DIHYDROXY-5,7-DIMETHOXYFLAVAN]
IC50 (µM): 49.1

Ask: For the compound shown here, COc1cc2c(cc1O)CC[C@@H](c1ccc(O)c(O)c1)O2 , give the reported IC50.
Result: 110

These data points were gathered from ChEMBL document CHEMBL2407025.
